# ASSAY EXPLANATION: In vivo pharmacokinetics in male NMRI mice
# TEST PARAMETERS: mouse, plasma, iv, 0.5 mg/kg i.v., read-out: CLB (blood clearance) (converted)
ENDPOINT: clearance (mL/min/kg)
Report as a plain number; the unit mL/min/kg is understood.

Please give the measured clearance for this compound: `CC(C)(O)COc1ccc(CN2C(=S)N(c3ccc(C#N)c(C(F)(F)F)c3)C(=O)C2(C)C)cn1`
1

###

# TARGET OR TEST SYSTEM: AR T877A (Homo sapiens, UniProt P10275, T878A)
# ASSAY EXPLANATION: cell-based
# TEST PARAMETERS: IC50 (antagonistic activity), R1881 1 nM
ENDPOINT: pIC50
Worth noting: pIC50 values are minus log10 of concentrations stated in mol/L.

// query pIC50 value for entry CC(C)(O)COc1ccc(CN2C(=S)N(c3ccc(C#N)c(C(F)(F)F)c3)C(=O)C2(C)C)cn1 [BAY 1024767]
5.96

###

# TARGET OR TEST SYSTEM: AR L701H (Homo sapiens, UniProt P10275, L701H/L702H)
# ASSAY EXPLANATION: cell-based
# TEST PARAMETERS: IC50 (antagonistic activity), R1881 10 nM
ENDPOINT: IC50

Given CC(C)(O)COc1ccc(CN2C(=S)N(c3ccc(C#N)c(C(F)(F)F)c3)C(=O)C2(C)C)cn1 [BAY 1024767] , state its recorded IC50.
1.38 µM

###

# TARGET OR TEST SYSTEM: AR E709Y (Homo sapiens, UniProt P10275, E710Y)
# ASSAY EXPLANATION: cell-based
# TEST PARAMETERS: IC50 (antagonistic activity), R1881 10 nM
ENDPOINT: IC50 (nM)
The answer is to be given in nM; state only the numeric part.

Quick check: IC50 of `CC(C)(O)COc1ccc(CN2C(=S)N(c3ccc(C#N)c(C(F)(F)F)c3)C(=O)C2(C)C)cn1` ?
610

###

# TARGET OR TEST SYSTEM: AR F876L (Homo sapiens, UniProt P10275, F877L)
# ASSAY EXPLANATION: cell-based
# TEST PARAMETERS: IC50 (antagonistic activity), R1881 10 nM
ENDPOINT: IC50 (nM)
Record the value in nM, omitting the unit from your answer.

I would be grateful if you could share the reported IC50 for `CC(C)(O)COc1ccc(CN2C(=S)N(c3ccc(C#N)c(C(F)(F)F)c3)C(=O)C2(C)C)cn1` .
2060

###

# TARGET OR TEST SYSTEM: AR L701H (Homo sapiens, UniProt P10275, L701H/L702H)
# Sequence (P10275 1-920 L701H/L702H): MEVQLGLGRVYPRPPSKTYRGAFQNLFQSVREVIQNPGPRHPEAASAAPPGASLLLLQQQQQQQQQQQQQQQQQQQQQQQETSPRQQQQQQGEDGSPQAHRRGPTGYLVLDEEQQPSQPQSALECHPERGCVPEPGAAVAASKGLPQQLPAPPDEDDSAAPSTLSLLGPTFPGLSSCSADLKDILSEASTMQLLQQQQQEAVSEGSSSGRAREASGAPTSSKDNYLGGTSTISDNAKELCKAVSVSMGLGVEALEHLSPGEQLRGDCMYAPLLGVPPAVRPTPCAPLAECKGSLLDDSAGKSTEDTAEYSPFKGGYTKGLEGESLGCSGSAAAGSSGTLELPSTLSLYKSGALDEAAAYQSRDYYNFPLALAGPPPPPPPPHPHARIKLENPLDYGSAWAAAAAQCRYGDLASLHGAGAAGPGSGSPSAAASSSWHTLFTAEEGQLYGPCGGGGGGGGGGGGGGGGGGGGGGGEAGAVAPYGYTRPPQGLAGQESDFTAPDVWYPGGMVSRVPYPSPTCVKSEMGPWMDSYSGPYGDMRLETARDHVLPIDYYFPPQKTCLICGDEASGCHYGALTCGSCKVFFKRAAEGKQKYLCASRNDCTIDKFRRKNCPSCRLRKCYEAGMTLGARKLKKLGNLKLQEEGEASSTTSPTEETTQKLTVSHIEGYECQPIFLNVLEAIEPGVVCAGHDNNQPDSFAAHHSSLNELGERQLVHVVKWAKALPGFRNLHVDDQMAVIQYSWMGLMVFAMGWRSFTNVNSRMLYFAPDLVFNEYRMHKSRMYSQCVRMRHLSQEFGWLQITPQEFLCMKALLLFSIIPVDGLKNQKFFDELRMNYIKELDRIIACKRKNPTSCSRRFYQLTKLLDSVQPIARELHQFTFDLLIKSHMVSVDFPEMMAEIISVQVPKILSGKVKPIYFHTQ
# ASSAY EXPLANATION: cell-based
# TEST PARAMETERS: IC50 (antagonistic activity), R1881 1 nM
ENDPOINT: IC50
Record the result as a number with its unit.

Name the recorded IC50 for `CC(C)(O)COc1ccc(CN2C(=S)N(c3ccc(C#N)c(C(F)(F)F)c3)C(=O)C2(C)C)cn1` .
718 nM

Entry source: paper PMC4868737
